Tested on: BDF1 mice, P388 leukemia ip, median survival T/C
Assay Comment: NCI In Vivo Anticancer Drug Screen. Data for tumor model P388 Leukemia (intraperitoneal) in B6D2F1 (BDF1) mice
Condition Context: endpoint: median survival time; dose: 400.0 mg/kg/injection; schedule: Q01DX001 (ip); vehicle: saline with Tween-80; higher = longer survival
Toxic doses and inconclusive results are not listed.
Assay Endpoint: T/C

Entry COCC1CCSC1=O (stereo not drawn) : T/C on BDF1 mice, P388 leukemia ip, median survival T/C = 93 % of control

Entry CCC(CO)NC(=O)Nc1cccc2ccccc12 (stereo not drawn) : T/C on BDF1 mice, P388 leukemia ip, median survival T/C = 109 % of control

Entry `COC(=O)Cc1[nH]ccc1C(=O)OC` : T/C on BDF1 mice, P388 leukemia ip, median survival T/C = 120 % of control

###

Tested on: BDF1 mice, P388 leukemia ip, median survival T/C
Assay Comment: NCI In Vivo Anticancer Drug Screen. Data for tumor model P388 Leukemia (intraperitoneal) in B6D2F1 (BDF1) mice
Condition Context: endpoint: median survival time; dose: 400.0 mg/kg/injection; schedule: Q04DX003 (ip); vehicle: saline sonified; higher = longer survival
Inconclusive results and toxic doses are left out.
Assay Endpoint: T/C

Measured T/C of C/C(CC(c1ccccc1)N1CCc2ccccc2C1)=N/O (centres undefined) : 90 % of control

Measured T/C of `COc1cc(/C=N/OCc2cc3c(cc2Cl)OCO3)cc(OC)c1OC` : 104 % of control

Measured T/C of O=C(O)C1=CC(O)C(O)C(O)C1 (centres undefined) : 100 % of control

Measured T/C of `COc1cc2c(cc1I)-c1c(cc(OC)c(OC)c1OC)CC[C@@H]2NC(C)=O` : 100 % of control

###

Tested on: BDF1 mice, P388 leukemia ip, median survival T/C
Assay Comment: NCI In Vivo Anticancer Drug Screen. Data for tumor model P388 Leukemia (intraperitoneal) in B6D2F1 (BDF1) mice
Condition Context: endpoint: median survival time; dose: 200.0 mg/kg/injection; schedule: Q01DX009 (ip); vehicle: saline with Tween-80; higher = longer survival
Protocol: The antitumor activity of compounds was measured in mice bearing transplantable tumors. Survival or tumor size were measured and the results are expressed as the measurement made in the treated group (T) divided by the measurement made in the vehicle treated control group (C). The tumor model used in this assay is P388 Leukemia (intraperitoneal) in B6D2F1 (BDF1) mice
Inconclusive results and toxic doses are left out.
So I've got a bunch of compounds here, and I need their T/C values.

Measured T/C of OC(CCl)C(O)C(O)C(O)CCl (stereo not given) : 113 % of control

Measured T/C of `CC(=O)OCC(=O)[C@@]1(O)CC[C@H]2[C@@H]3CCC4=CC(=O)CC[C@]4(C)[C@H]3[C@@H](O)C[C@@]21C` : 110 % of control

Measured T/C of CC(C)CC1NC(=O)C(Cc2ccc(OCc3ccccc3)cc2)NC1=O (stereo not given) : 93 % of control

Measured T/C of `O=C(O)c1ccc(COc2ccc([N+](=O)[O-])cc2Cl)cc1` : 100 % of control

Measured T/C of CC(C)c1nsc2c1C(=O)NC(C(C)(C)C)N2 (stereo not given) : 95 % of control

Measured T/C of `Cc1ccc(C)c(-n2nnc3ccccc3c2=O)c1` : 86 % of control

Measured T/C of CC#CCOCC1CN(c2ccccc2)C(=O)O1 (stereo not given) : 100 % of control

Measured T/C of CC1(O)c2ccccc2-c2nc3ccccc3nc21 (stereo not given) : 100 % of control

Measured T/C of N#Cc1ccc(CC(O)c2ccc(Cl)cc2)cc1 (stereo not given) : 96 % of control

Measured T/C of `CN1C(=O)C(=Cc2ccc(N(C)C)cc2)C(=O)N(C)C1=O` : 98 % of control

Measured T/C of `O=[N+]([O-])c1ccc(Cl)nc1` : 95 % of control

Measured T/C of `Nc1nccnc1N` : 120 % of control

Measured T/C of CC(=O)OC1CCCc2c1nc1ccccc1[n+]2[O-] (stereo not given) : 96 % of control

Measured T/C of `CCCCc1ccc(Sc2cccc3c2C(=O)c2c(Sc4ccc(CCCC)cc4)cccc2C3=O)cc1` : 90 % of control

Measured T/C of `OCC1=CCCCC1` : 104 % of control

Measured T/C of `CC(=O)CSc1nc2nccnc2[nH]1` : 106 % of control

Measured T/C of `C=C1C(=O)[C@]23C[C@H]1CC[C@H]2[C@@]12CO[C@@H](O)[C@@H]1C(C)(C)[C@@H](O)C[C@@H]2OC3=O` : 120 % of control

Measured T/C of `CC1=NN(CCO)C(=O)C1` : 93 % of control

Measured T/C of `C[C@]12C=CC(=O)C=C1CC[C@H]1[C@@H]3CCC(=O)O[C@@]3(C)CC(=O)[C@@]12F` : 100 % of control

Measured T/C of CCCCC(CC)COC(=O)CC(CC(=O)OCC(CC)CCCC)C(=O)OCC(CC)CCCC (stereo not given) : 92 % of control

Measured T/C of `Cc1ccc(C(=O)NCCCOc2ccc(N)cc2Cl)cc1S(=O)(=O)F` : 107 % of control

Measured T/C of `CC(=O)N(C)c1ccc(/C=C2\C=Cc3ccccc32)cc1` : 95 % of control

Measured T/C of O=C(c1ccco1)C1Cc2ccccc2C1=O (stereo not given) : 104 % of control

Measured T/C of `CCOC(=O)C(C)(C(=O)OCC)c1ccccc1` : 113 % of control

Measured T/C of `Nc1ncc2[nH]c(C(F)(F)F)nc2n1` : 105 % of control

Measured T/C of `C(=N\c1ncn[nH]1)/c1ccco1` : 102 % of control

Measured T/C of CC1(C(=O)O)CCC(C(=O)Nc2ccccc2)C1(C)C (stereo not given) : 92 % of control

Measured T/C of `COc1ccc(CCCC(=O)O)cc1OC` : 103 % of control

Measured T/C of `COc1ccc(C2(C(=O)O)CC2)cc1` : 100 % of control

Measured T/C of `CN(/N=N/N(C)c1ccccc1)c1ccccc1` : 120 % of control

Measured T/C of NC(Cc1ccccc1Cl)C(=O)O (stereo not given) : 94 % of control

Measured T/C of `c1cc[c]([Sn]([S][Sn]([c]2ccccc2)([c]2ccccc2)[c]2ccccc2)([c]2ccccc2)[c]2ccccc2)cc1` : 114 % of control

Measured T/C of COC1(c2ccc([N+](=O)[O-])o2)OC1(C)C (stereo not given) : 117 % of control

Measured T/C of `Cc1ccc(C2(C#N)CCCCC2)cc1` : 108 % of control

Measured T/C of `COc1ccc(-c2noc(=O)c3ccccc23)cc1` : 114 % of control

Measured T/C of `O=c1nc[nH]c(=O)[nH]1` : 104 % of control

Measured T/C of `COC(=O)C1=C(C)N[C@@]2(C)[C@H](C(=O)OC)C[C@H]1C2(C(C)=O)C(C)=O` : 109 % of control

Measured T/C of `Cn1cnc([N+](=O)[O-])c1Cl` : 101 % of control

Measured T/C of CC(=O)O[C@H]1CC[C@H]2[C@@H]3[C@H](C)CC4=CC(=O)CCC4[C@H]3CC[C@]12C (stereo not given in full) : 90 % of control

Measured T/C of CC(=O)OC1CCC2(C)C(CC(=O)C(C)C23CCC2(C=COC2)O3)C1(C)C (stereo not given) : 102 % of control

###

Test system: BDF1 mice, P388 leukemia ip, median survival T/C
Assay Comment: NCI In Vivo Anticancer Drug Screen. Data for tumor model P388 Leukemia (intraperitoneal) in B6D2F1 (BDF1) mice
Condition Context: endpoint: median survival time; dose: 400.0 mg/kg/injection; schedule: Q04DX003 (ip); vehicle: saline with Tween-80; higher = longer survival
Toxic doses and inconclusive results are not listed.
So I've got a bunch of compounds here, and I need their T/C values.

Measured T/C of NC(=O)NC(C(=O)O)(c1ccccc1)C1CCC1 (configuration not stated) : 95 % of control

Measured T/C of `O=c1cc(-c2ccccc2)ss1` : 100 % of control

Measured T/C of CC(O)(/C=C\c1ccccc1)c1ccccc1 (configuration not stated) : 104 % of control

Measured T/C of `Nc1c(Cl)cc(S(N)(=O)=O)cc1Cl` : 100 % of control

Measured T/C of `COc1cccc(CCNC(=O)CC#N)c1OC` : 100 % of control

Measured T/C of `CS(=O)(=O)N(c1ccccc1[N+](=O)[O-])S(C)(=O)=O` : 104 % of control

Measured T/C of CCCCSc1nc(N)nc2c1ncn2CC(C)CC (configuration not stated) : 100 % of control
